The measurements presented in this section are drawn from paper PMC6627609.

# System: LsrK (Salmonella typhimurium)
# Sequence (Q8ZKQ6 whole entry): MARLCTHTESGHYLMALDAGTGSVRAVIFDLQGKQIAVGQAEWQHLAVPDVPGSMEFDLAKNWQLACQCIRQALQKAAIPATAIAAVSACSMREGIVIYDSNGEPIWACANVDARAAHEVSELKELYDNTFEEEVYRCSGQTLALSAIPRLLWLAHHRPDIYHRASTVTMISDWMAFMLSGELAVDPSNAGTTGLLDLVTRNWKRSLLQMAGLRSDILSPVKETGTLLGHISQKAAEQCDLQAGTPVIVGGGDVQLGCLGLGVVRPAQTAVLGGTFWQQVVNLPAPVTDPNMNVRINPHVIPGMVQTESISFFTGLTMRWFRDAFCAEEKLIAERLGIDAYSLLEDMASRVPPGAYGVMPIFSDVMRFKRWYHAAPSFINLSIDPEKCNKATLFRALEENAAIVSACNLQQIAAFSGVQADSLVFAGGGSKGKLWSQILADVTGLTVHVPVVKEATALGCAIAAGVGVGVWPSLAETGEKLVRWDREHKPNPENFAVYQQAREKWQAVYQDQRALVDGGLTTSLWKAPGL
# Protocol: biochemical
# Type: biochemical, S. typhimurium
Parameter: inhibition at 50 µM (%)
Kindly answer with a numeric value in %, unit omitted.

Example cases with answers are listed next.
# Compound, Parameter, Recorded Result
data = [
    ("COc1ccc(-c2cc(C(F)F)nn2-c2ccc(S(N)(=O)=O)cc2)cc1F [DERACOXIB]", "inhibition at 50 µM", 2),
    ("C[C@@](Cc1ccc(O)c(O)c1)(NN)C(=O)O [CARBIDOPA]", "inhibition at 50 µM", 0),
    ("O=c1cc(-c2ccccc2)oc2cc(O)c(O)c(O)c12 [BAICALEIN]", "inhibition at 50 µM", 2),
]

Quote inhibition at 50 µM reported for Cc1cc(OC(=O)c2c(C)cc(O)cc2O)cc(O)c1C(=O)O [LECANORIC ACID] please.
0

Quote inhibition at 50 µM reported for CC(=O)O[C@H]1C[C@@H]2CC[C@@H]3[C@H](CC[C@@]4(C)[C@H]3C[C@H]([N+]3(C)CCCCC3)[C@@H]4OC(C)=O)[C@@]2(C)C[C@@H]1[N+]1(C)CCCCC1 [PANCURONIUM BROMIDE] please.
0

Quote inhibition at 50 µM reported for CC(=O)O[C@@H]1C[C@H]2C(C)(C)C(=O)C=C[C@]2(C)[C@H]2CC[C@@]3(C)[C@H](c4ccoc4)OC(=O)[C@H]4O[C@]43[C@@]21C [GEDUNIN] please.
0

Quote inhibition at 50 µM reported for OC[C@H]1O[C@@H](Oc2ccc(O)cc2)[C@H](O)[C@@H](O)[C@@H]1O [ARBUTIN] please.
2
